# Lookup of reported IC50 keyed by entry
# Tested on: 843782-103-R-J1-PDC complex spheroid viability
# assayOverview: Anticancer human tumor 843782-103-R-J1-PDC patient-derived lung adenocarcinoma cell line growth inhibition [RAS]
# experimentalParameters: curve of first compound; second compound 0.000949 µM
quantityName: IC50

compound	quantityName	measuredResult
NC1c2ccccc2OC12CCN(c1cnc3c(N4CCCc5ncccc54)n[nH]c3n1)CC2 (stereo not drawn) + CCn1c(-c2cc(N3CCN(C)CC3)cnc2C(C)OC)c2c3cc(ccc31)-c1csc(n1)CC(NC(=O)C1CC1C)C(=O)N1CCCC(N1)C(=O)OCC(C)(C)C2	IC50	< 0.0316 µM
CC1(C)CCC(Nc2ncc(C(F)(F)F)c(-c3c[nH]c4c(P(C)(C)=O)c(C#N)ccc34)n2)CN1 (stereo not drawn) + CCn1c(-c2cc(N3CCN(C)CC3)cnc2C(C)OC)c2c3cc(ccc31)-c1csc(n1)CC(NC(=O)C1CC1C)C(=O)N1CCCC(N1)C(=O)OCC(C)(C)C2	IC50	0.00542 µM
Nc1ccn(C2OC(CO)C(O)C2(F)F)c(=O)n1 (stereo not drawn) + CCn1c(-c2cccnc2C(C)OC)c2c3cc(ccc31)N1CCOC(CC(NC(=O)C(C(C)C)N(C)C(=O)C3(F)CCN(C(=O)C#CC(C)(C)N(C)C)CC3)C(=O)N3CCCC(N3)C(=O)OCC(C)(C)C2)C1	IC50	0.011 µM
CC(C)n1nc(-c2ccc3oc(N)nc3c2)c2c(N)ncnc21 + CCn1c(-c2cc(N3CCN(C)CC3)cnc2C(C)OC)c2c3cc(ccc31)-c1csc(n1)CC(NC(=O)C1CC1C)C(=O)N1CCCC(N1)C(=O)OCC(C)(C)C2	IC50	0.00534 µM
NC1c2ccccc2OC12CCN(c1cnc3c(N4CCCc5ncccc54)n[nH]c3n1)CC2 (stereo not drawn) + CCn1c(-c2cccnc2C(C)OC)c2c3cc(ccc31)N1CCOC(CC(NC(=O)C(C(C)C)N(C)C(=O)C3(F)CCN(C(=O)C#CC(C)(C)N(C)C)CC3)C(=O)N3CCCC(N3)C(=O)OCC(C)(C)C2)C1	IC50	< 0.0316 µM
CC1(O)CCCC1n1c(=O)c(C(F)F)cc2cnc(NC3CCN(S(C)(=O)=O)CC3)nc21 (stereo not drawn) + CCn1c(-c2cccnc2C(C)OC)c2c3cc(ccc31)N1CCOC(CC(NC(=O)C(C(C)C)N(C)C(=O)C3(F)CCN(C(=O)C#CC(C)(C)N(C)C)CC3)C(=O)N3CCCC(N3)C(=O)OCC(C)(C)C2)C1	IC50	0.059 µM
CCC(CC)c1cc(NC2CCC(N)C2)n2nccc2n1 (stereo not drawn) + CCn1c(-c2cc(N3CCN(C)CC3)cnc2C(C)OC)c2c3cc(ccc31)-c1csc(n1)CC(NC(=O)C1CC1C)C(=O)N1CCCC(N1)C(=O)OCC(C)(C)C2	IC50	0.591 µM
C=CC(=O)Nc1cc(Nc2nccc(-c3cn(C)c4ccccc34)n2)c(OC)cc1N(C)CCN(C)C + CCn1c(-c2cccnc2C(C)OC)c2c3cc(ccc31)N1CCOC(CC(NC(=O)C(C(C)C)N(C)C(=O)C3(F)CCN(C(=O)C#CC(C)(C)N(C)C)CC3)C(=O)N3CCCC(N3)C(=O)OCC(C)(C)C2)C1	IC50	0.0782 µM

* * *

# Test system: 843782-103-R-J1-PDC complex spheroid viability
# assayOverview: Anticancer human tumor 843782-103-R-J1-PDC cell line growth inhibition [RAS];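 note: viability read after seven days of compound exposure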
# experimentalParameters: second compound 0.00949 µM; first compound 0.0316 µM; stronger effect = lower value
quantityName: viability, T/C (%)

molecule	assayedSystem	measuredResult
CCN1CCN(Cc2ccc(Nc3ncc(F)c(-c4cc(F)c5nc(C)n(C(C)C)c5c4)n3)nc2)CC1 + CCn1c(-c2cc(N3CCN(C)CC3)cnc2C(C)OC)c2c3cc(ccc31)-c1csc(n1)CC(NC(=O)C1CC1C)C(=O)N1CCCC(N1)C(=O)OCC(C)(C)C2	843782-103-R-J1-PDC complex spheroid viability	34.4
CC(=O)OC12COC1CC(O)C1(C)C(=O)C(O)C3=C(C)C(OC(=O)C(O)C(NC(=O)OC(C)(C)C)c4ccccc4)CC(O)(C(OC(=O)c4ccccc4)C21)C3(C)C (stereo not drawn) + CCn1c(-c2cccnc2C(C)OC)c2c3cc(ccc31)N1CCOC(CC(NC(=O)C(C(C)C)N(C)C(=O)C3(F)CCN(C(=O)C#CC(C)(C)N(C)C)CC3)C(=O)N3CCCC(N3)C(=O)OCC(C)(C)C2)C1	843782-103-R-J1-PDC complex spheroid viability	5.3
C=CC(=O)N1CCN(c2nc(OCC3CCCN3C)nc3c(F)c(-c4nc(N)cc(C)c4C(F)(F)F)c(Cl)cc23)C(C)C1 (stereo not drawn) + CCn1c(-c2cc(N3CCN(C)CC3)cnc2C(C)OC)c2c3cc(ccc31)-c1csc(n1)CC(NC(=O)C1CC1C)C(=O)N1CCCC(N1)C(=O)OCC(C)(C)C2	843782-103-R-J1-PDC complex spheroid viability	36.3
CC(Nc1ccc2c(c1)OCCn1cc(N3C(=O)OCC3C(F)F)nc1-2)C(N)=O (stereo not drawn) + CCn1c(-c2cc(N3CCN(C)CC3)cnc2C(C)OC)c2c3cc(ccc31)-c1csc(n1)CC(NC(=O)C1CC1C)C(=O)N1CCCC(N1)C(=O)OCC(C)(C)C2	843782-103-R-J1-PDC complex spheroid viability	28
C=CC(=O)Nc1cc(Nc2nccc(-c3cn(C)c4ccccc34)n2)c(OC)cc1N(C)CCN(C)C + CCn1c(-c2cccnc2C(C)OC)c2c3cc(ccc31)N1CCOC(CC(NC(=O)C(C(C)C)N(C)C(=O)C3(F)CCN(C(=O)C#CC(C)(C)N(C)C)CC3)C(=O)N3CCCC(N3)C(=O)OCC(C)(C)C2)C1	843782-103-R-J1-PDC complex spheroid viability	73
CC(C)n1nc(-c2ccc3oc(N)nc3c2)c2c(N)ncnc21 + CCn1c(-c2cccnc2C(C)OC)c2c3cc(ccc31)N1CCOC(CC(NC(=O)C(C(C)C)N(C)C(=O)C3(F)CCN(C(=O)C#CC(C)(C)N(C)C)CC3)C(=O)N3CCCC(N3)C(=O)OCC(C)(C)C2)C1	843782-103-R-J1-PDC complex spheroid viability	28
CC1(O)CCCC1n1c(=O)c(C(F)F)cc2cnc(NC3CCN(S(C)(=O)=O)CC3)nc21 (stereo not drawn) + CCn1c(-c2cc(N3CCN(C)CC3)cnc2C(C)OC)c2c3cc(ccc31)-c1csc(n1)CC(NC(=O)C1CC1C)C(=O)N1CCCC(N1)C(=O)OCC(C)(C)C2	843782-103-R-J1-PDC complex spheroid viability	37.4
CC(=O)OC12COC1CC(O)C1(C)C(=O)C(O)C3=C(C)C(OC(=O)C(O)C(NC(=O)OC(C)(C)C)c4ccccc4)CC(O)(C(OC(=O)c4ccccc4)C21)C3(C)C (stereo not drawn) + CCn1c(-c2cc(N3CCN(C)CC3)cnc2C(C)OC)c2c3cc(ccc31)-c1csc(n1)CC(NC(=O)C1CC1C)C(=O)N1CCCC(N1)C(=O)OCC(C)(C)C2	843782-103-R-J1-PDC complex spheroid viability	4.74

* * *

# System: 843782-103-R-J1-PDC complex spheroid viability
# assayOverview: Anticancer human tumor 843782-103-R-J1-PDC cell line growth inhibition [RAS];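 note: viability read after seven days of compound exposure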
# experimentalParameters: second compound 0.316 µM; first compound 0.1 µM; stronger effect = lower value
quantityName: viability, T/C (%)

compound	assayedSystem	unitAnnotation	measuredResult
NC1c2ccccc2OC12CCN(c1cnc3c(N4CCCc5ncccc54)n[nH]c3n1)CC2 (centres undefined) + C=CC(=O)N1CCN(c2nc(OCC3CCCN3C)nc3c(F)c(-c4nc(N)cc(C)c4C(F)(F)F)c(Cl)cc23)C(C)C1	843782-103-R-J1-PDC complex spheroid viability	%	39.8
CC(=O)OC12COC1CC(O)C1(C)C(=O)C(O)C3=C(C)C(OC(=O)C(O)C(NC(=O)OC(C)(C)C)c4ccccc4)CC(O)(C(OC(=O)c4ccccc4)C21)C3(C)C (centres undefined) + C=CC(=O)N1CCN(c2nc(OCC3CCCN3C)nc3c(F)c(-c4nc(N)cc(C)c4C(F)(F)F)c(Cl)cc23)C(C)C1	843782-103-R-J1-PDC complex spheroid viability	%	3.89
C=CC(=O)Nc1cc(Nc2nccc(-c3cn(C)c4ccccc34)n2)c(OC)cc1N(C)CCN(C)C + C=CC(=O)N1CCN(c2nc(OCC3CCCN3C)nc3c(F)c(-c4nc(N)cc(C)c4C(F)(F)F)c(Cl)cc23)C(C)C1	843782-103-R-J1-PDC complex spheroid viability	%	70.2
CCN1CCN(Cc2ccc(Nc3ncc(F)c(-c4cc(F)c5nc(C)n(C(C)C)c5c4)n3)nc2)CC1 + C#Cc1c(F)ccc2cc(O)cc(-c3ncc4c(N5CC6CCC(C5)N6)nc(OCC56CCCN5CC(F)C6)nc4c3F)c12	843782-103-R-J1-PDC complex spheroid viability	%	99.3
